- ASSAY METHOD TEXT: Half-life in rhesus monkey
- Format: ADME
- REPORTED CONDITIONS: cercopithecidae, in vivo
Can you tell me half-life for the items I'm about to list?
Unit h implied. Number only.

Query :: Need half-life, item "O=C(O)[C@@H](C1CCCCC1)N1C[C@H](CN2CCC(CCCc3ccccc3)CC2)[C@@H](c2ccccc2)C1"
Result :: 6.3

Query :: Return reported half-life; argument: "CC(C)[C@H](C(=O)O)N1C[C@H](CN2CCC(c3ccc(F)cc3)CC2)[C@@H](c2ccccc2)C1"
Result :: 7.8

====

- ASSAY METHOD TEXT: Plasma clearance in rhesus monkey
- Format: ADME, organism-based
- REPORTED CONDITIONS: cercopithecidae, read-out: Clp
MEASUREMENT KIND: clearance (mL/min/kg)
Respond with the bare value in mL/min/kg.

Query :: Param item = "O=C(O)[C@@H](C1CCCCC1)N1C[C@H](CN2CCC(CCCc3ccccc3)CC2)[C@@H](c2ccccc2)C1" ; retrieve measured clearance.
Result :: 17.1
